- Test system: 186277-243-T-J2-PDC multi-cell spheroid viability;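 note: spheroids exposed to compounds for seven days before viability reading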
- protocol: Anticancer human tumor 186277-243-T-J2-PDC patient-derived colon adenocarcinoma cell line growth inhibition [PI3K]
- setup.conditions: curve of first compound; second compound 0.0316 µM
measured.property: IC50 (nM)

>>> meas_value("Cn1cnc2c(F)c(Nc3ccc(Br)cc3Cl)c(C(=O)NOCCO)cc21 + CC(Nc1ccc2c(c1)OCCn1cc(N3C(=O)OCC3C(F)F)nc1-2)C(N)=O")
39.4
>>> meas_value("CC(C)NCC(C(=O)N1CCN(c2ncnc3c2C(C)CC3O)CC1)c1ccc(Cl)cc1 (stereo unspecified) + CC(Nc1ncnc2nc[nH]c12)c1cc2cccc(Cl)c2c(=O)n1-c1ccccc1")
2280
>>> meas_value("CC(C)n1nc(-c2ccc3oc(N)nc3c2)c2c(N)ncnc21 + CC(Nc1ccc2c(c1)OCCn1cc(N3C(=O)OCC3C(F)F)nc1-2)C(N)=O")
47.5
